Hello, the source for this data is BindingDB's records for patent US20230399319, in case you need it.

biological target: NACHT, LRR and PYD domains-containing protein 3 (Homo sapiens); experiment: Evaluation of NLRP3 Inflammasome Inhibitory Activity Assay
Sequence (Q96P20 whole entry, the tested form may be a part): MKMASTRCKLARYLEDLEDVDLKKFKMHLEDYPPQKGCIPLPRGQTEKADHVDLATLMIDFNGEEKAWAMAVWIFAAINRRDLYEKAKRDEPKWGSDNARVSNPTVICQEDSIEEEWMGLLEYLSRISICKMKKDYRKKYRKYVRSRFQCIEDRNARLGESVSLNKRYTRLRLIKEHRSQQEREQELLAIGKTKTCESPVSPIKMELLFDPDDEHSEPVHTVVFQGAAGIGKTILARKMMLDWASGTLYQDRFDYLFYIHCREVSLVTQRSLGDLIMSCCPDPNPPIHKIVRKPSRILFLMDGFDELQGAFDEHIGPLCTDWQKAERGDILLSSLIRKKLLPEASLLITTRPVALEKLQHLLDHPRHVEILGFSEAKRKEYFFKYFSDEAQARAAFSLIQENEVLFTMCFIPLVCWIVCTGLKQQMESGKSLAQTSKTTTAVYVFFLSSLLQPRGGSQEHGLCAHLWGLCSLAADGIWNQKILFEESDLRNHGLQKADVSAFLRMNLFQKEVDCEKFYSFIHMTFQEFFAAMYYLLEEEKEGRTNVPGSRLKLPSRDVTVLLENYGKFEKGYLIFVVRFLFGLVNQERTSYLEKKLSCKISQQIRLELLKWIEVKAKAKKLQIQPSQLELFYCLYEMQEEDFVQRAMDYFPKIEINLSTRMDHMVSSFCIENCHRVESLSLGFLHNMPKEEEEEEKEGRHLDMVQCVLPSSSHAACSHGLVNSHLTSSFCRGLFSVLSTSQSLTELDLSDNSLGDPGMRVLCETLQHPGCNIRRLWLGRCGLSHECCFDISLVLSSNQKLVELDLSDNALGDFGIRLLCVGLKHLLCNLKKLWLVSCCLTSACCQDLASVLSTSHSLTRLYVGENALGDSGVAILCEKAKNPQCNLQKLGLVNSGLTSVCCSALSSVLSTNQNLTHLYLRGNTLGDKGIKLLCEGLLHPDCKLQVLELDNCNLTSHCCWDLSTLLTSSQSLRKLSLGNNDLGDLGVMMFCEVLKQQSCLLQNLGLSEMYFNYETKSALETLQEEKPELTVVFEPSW
Quantity measured: IC50 (nM)
Give bare numbers, in nM.

Solved entries:
molecule=Cc1ccc(C)c(Nc2nc(C(=O)NS(=O)(=O)N3CCCOCC3)co2)c1C assay_system="NACHT, LRR and PYD domains-containing protein 3 (Homo sapiens)" quantity_measured=IC50 result_number=340
molecule="Cc1cn(C(C)C)nc1Nc1nc(C(=O)NS(=O)(=O)N2CCCC(C#N)CC2)co1 (configuration not stated)" assay_system="NACHT, LRR and PYD domains-containing protein 3 (Homo sapiens)" quantity_measured=IC50 result_number=160
molecule="COCC(C)CN(C)S(=O)(=O)NC(=O)c1coc(Nc2cc(C(F)(F)F)ccc2C)n1 (configuration not stated)" assay_system="NACHT, LRR and PYD domains-containing protein 3 (Homo sapiens)" quantity_measured=IC50 result_number=81
molecule=Cc1ccc(C(F)(F)F)cc1Nc1nc(C(=O)NS(=O)(=O)N2CCCCCC2)co1 assay_system="NACHT, LRR and PYD domains-containing protein 3 (Homo sapiens)" quantity_measured=IC50 result_number=42
molecule=CCOC[C@@H]1CCCN1S(=O)(=O)NC(=O)c1coc(Nc2cc(C)ccc2C)n1 assay_system="NACHT, LRR and PYD domains-containing protein 3 (Homo sapiens)" quantity_measured=IC50 result_number=210

Batch lookup, IC50 per entry.
1. Cc1ccc(C(F)(F)F)cc1Nc1nc(C(=O)NS(=O)(=O)N2CCC(F)(F)CC2)co1
2. Cc1c(Nc2nc(C(=O)NS(=O)(=O)N(C)C)co2)cc(C(F)(F)F)cc1C(F)(F)F
3. Cc1cc(Nc2nc(C(=O)NS(=O)(=O)N3CCOC(COCC(C)(C)O)CC3)co2)c(C)cc1F (configuration not stated)

### Response
130
340
16

Batch lookup, IC50 per entry.
1. CCCS(=O)(=O)C1CCCN(S(=O)(=O)NC(=O)c2coc(Nc3nc(C(F)(F)F)ccc3C(C)C)n2)CC1 (configuration not stated)
2. CCCC1CCCN(S(=O)(=O)NC(=O)c2coc(Nc3cc(C(F)(F)F)ccc3C)n2)CC1 (configuration not stated)
3. CCCS(=O)(=O)C1CCCN(S(=O)(=O)NC(=O)c2coc(Nc3cc(C)ccc3C(C)C)n2)CC1 (configuration not stated)

### Response
1: 85; 2: 480; 3: 18

Batch lookup, IC50 per entry.
1. Cc1cc(F)c(C(C)C)cc1Nc1nc(C(=O)NS(=O)(=O)N2CCCOCC2)co1
2. CN(C)S(=O)(=O)NC(=O)c1coc(Nc2cc(C(F)(F)F)ccc2C2CC2)n1
3. COCCN(Cc1ccccc1)S(=O)(=O)NC(=O)c1coc(Nc2cc(C(F)(F)F)ccc2C)n1
4. Cc1cn(CC(F)(F)F)nc1Nc1nc(C(=O)NS(=O)(=O)N2CCCOCC2)co1
5. Cc1ccc(C(F)(F)F)cc1Nc1nc(C(=O)NS(=O)(=O)N2CCCN(c3ncccn3)[C@H](C)C2)co1

### Response
1. 10
2. 92
3. 55
4. 6100
5. 22

Batch lookup, IC50 per entry.
1. CCOC[C@H]1OCCN(S(=O)(=O)NC(=O)c2coc(Nc3cc(C)c(F)cc3C)n2)C[C@@H]1OC
2. CCCCS(=O)(=O)N1CCN(S(=O)(=O)NC(=O)c2coc(Nc3cc(C(F)(F)F)ccc3C)n2)CC1

### Response
[30, 22]
